test: Inhibition of MERS-CoV 3CLpro using FAM-SAVLQ as substrate preincubated with enzyme for 1 hr followed by susbtrate addition and measured after 1 hr by FRET assay; design: species or system Middle East respiratory syndrome-related coronavirus
# Lookup of reported IC50 keyed by entry
Give your result as the value with the unit written after it.

Below, each entry is followed by its recorded IC50 result.
molecule=CC(C)C[C@H](NC(=O)OCC(C)(C)Oc1ccccc1)C(=O)N[C@H](C=O)C[C@@H]1CCNC1=O observed_value="40 nM"
molecule="CC(C)C[C@H](NC(=O)OCCSc1ccccc1)C(=O)N[C@@H](C[C@@H]1CCNC1=O)C(O)S(=O)(=O)O (some centres undefined)" observed_value="140 nM"
molecule="CC(C)C[C@H](NC(=O)OCC(C)(C)Oc1cccc(Cl)c1)C(=O)N[C@@H](C[C@@H]1CCNC1=O)C(O)S(=O)(=O)O (some centres undefined)" observed_value="20 nM"

Q: For CC(C)C[C@H](NC(=O)OCC(C)(C)Oc1ccc(Cl)cc1)C(=O)N[C@H](C=O)C[C@@H]1CCNC1=O , what is its reported IC50?
A: 20 nM

Q: For CC(C)C[C@H](NC(=O)OCC(C)(C)Sc1cccc(F)c1)C(=O)N[C@H](C=O)C[C@@H]1CCNC1=O , what is its reported IC50?
A: 100 nM

Q: For CC(C)C[C@H](NC(=O)OCC(C)(C)Sc1ccc(F)cc1)C(=O)N[C@@H](C[C@@H]1CCNC1=O)C(O)S(=O)(=O)O (some centres undefined) , what is its reported IC50?
A: 150 nM

Q: For [2H]C([2H])(OC(=O)N[C@@H](CC(C)C)C(=O)N[C@H](C=O)C[C@@H]1CCNC1=O)C(C)(C)Sc1ccccc1 , what is its reported IC50?
A: 60 nM

Q: For [2H]C([2H])(OC(=O)N[C@@H](CC(C)C)C(=O)N[C@@H](C[C@@H]1CCNC1=O)C(O)S(=O)(=O)[O-])C(C)(C)Oc1ccc(Cl)cc1.[Na+] (some centres undefined) , what is its reported IC50?
A: 20 nM

Q: For CC(C)C[C@H](NC(=O)OCC(C)(C)S(=O)(=O)c1ccccc1)C(=O)N[C@H](C=O)C[C@@H]1CCNC1=O , what is its reported IC50?
A: 260 nM

Q: For CC(C)C[C@H](NC(=O)OCC(C)(O)c1cccc(Cl)c1)C(=O)N[C@@H](C[C@@H]1CCNC1=O)C(O)S(=O)(=O)O (mixture of isomers) , what is its reported IC50?
A: 100 nM

====

system: SARS-CoV-2; test: Antiviral activity against SARS-CoV-2 Wuhan-HU-1 infected in HEK293T cells assessed as inhibition of viral replication incubated for 30 hrs by luciferase reporter gene assay; type: functional, organism-based; details: Severe acute respiratory syndrome coronavirus 2, Wuhan-HU-1, HEK-293T
measurement-name: EC50 (nM)
Report the value in nM with no unit label.

Q: For CC(C)C[C@H](NC(=O)OCC(C)(O)c1cccc(Cl)c1)C(=O)N[C@@H](C[C@@H]1CCNC1=O)C(O)S(=O)(=O)O (mixture of isomers) , what is its reported EC50?
A: 25

Q: For CC(C)C[C@H](NC(=O)OCc1ccccc1)C(=O)N[C@@H](C[C@@H]1CCNC1=O)C(O)S(=O)(=O)O (some centres undefined) , what is its reported EC50?
A: 27

Q: For CC(C)C[C@H](NC(=O)OCC(C)(C)Sc1cccc(F)c1)C(=O)N[C@H](C=O)C[C@@H]1CCNC1=O , what is its reported EC50?
A: 9

Q: For CC(C)C[C@H](NC(=O)OCC(C)(C)Sc1ccccc1)C(=O)N[C@@H](C[C@@H]1CCNC1=O)C(O)(C(=O)NC1CC1)S(=O)(=O)O (some centres undefined) , what is its reported EC50?
A: 70

Q: For CC(C)C[C@H](NC(=O)OCC(C)(C)Oc1cccc(Cl)c1)C(=O)N[C@H](C=O)C[C@@H]1CCNC1=O , what is its reported EC50?
A: 13

Q: For CC(C)C[C@H](NC(=O)OCC(C)(C)Sc1cccc(F)c1)C(=O)N[C@@H](C[C@@H]1CCNC1=O)C(O)S(=O)(=O)O (some centres undefined) , what is its reported EC50?
A: 10

Q: For CC(C)C[C@H](NC(=O)OCC(C)(O)c1cccc(Cl)c1)C(=O)N[C@H](C=O)C[C@@H]1CCNC1=O (mixture of isomers) , what is its reported EC50?
A: 25

Q: For CC(C)C[C@H](NC(=O)OCC(C)(C)Sc1ccccc1)C(=O)N[C@H](C=O)C[C@@H]1CCNC1=O , what is its reported EC50?
A: 12

Q: For CC(C)C[C@H](NC(=O)OCC(C)(C)Sc1ccccc1)C(=O)N[C@H](C#N)C[C@@H]1CCNC1=O , what is its reported EC50?
A: 60

Q: For [2H]C([2H])(OC(=O)N[C@@H](CC(C)C)C(=O)N[C@H](C=O)C[C@@H]1CCNC1=O)C(C)(C)Oc1ccc(Cl)cc1 , what is its reported EC50?
A: 15

Q: For CC(C)C[C@H](NC(=O)OCC(C)(C)Sc1cccc(Cl)c1)C(=O)N[C@H](C=O)C[C@@H]1CCNC1=O , what is its reported EC50?
A: 10

Q: For CC(C)C[C@H](NC(=O)OCC(C)(C)Sc1ccccc1)C(=O)N[C@@H](C[C@@H]1CCNC1=O)C(=O)C(=O)NC1CC1 , what is its reported EC50?
A: 50

====

# Lookup of reported pIC50 keyed by entry
target: Replicase polyprotein 1ab (Severe acute respiratory syndrome coronavirus 2, UniProt P0DTD1)
Entry type: numeric. Quantity: pIC50, the -log10 of concentration in molar units.

Below, each entry is followed by its recorded pIC50 result.
compound=CC(C)C[C@H](NC(=O)OCC(C)(C)Oc1ccc(F)cc1)C(=O)N[C@H](C=O)C[C@@H]1CCNC1=O measurement_name=pIC50 observed_value=6.66
compound="[2H]C([2H])(OC(=O)N[C@@H](CC(C)C)C(=O)N[C@@H](C[C@@H]1CCNC1=O)C(O)S(=O)(=O)[O-])C(C)(C)Oc1ccc(Cl)cc1.[Na+] (some centres not stated)" measurement_name=pIC50 observed_value=6.77
compound=CC(C)C[C@H](NC(=O)OCC(C)(C)Oc1ccc(Cl)cc1)C(=O)N[C@H](C=O)C[C@@H]1CCNC1=O measurement_name=pIC50 observed_value=6.34
compound="CC(C)C[C@H](NC(=O)OCCSc1ccccc1)C(=O)N[C@@H](C[C@@H]1CCNC1=O)C(O)S(=O)(=O)O (some centres not stated)" measurement_name=pIC50 observed_value=6.51
compound="CC(C)C[C@H](NC(=O)OCC(C)(C)Oc1ccc(Cl)cc1)C(=O)N[C@@H](C[C@@H]1CCNC1=O)C(O)S(=O)(=O)O (some centres not stated)" measurement_name=pIC50 observed_value=6.47

Q: For CC(C)C[C@H](NC(=O)OCC(C)(C)S(=O)(=O)c1ccccc1)C(=O)N[C@H](C=O)C[C@@H]1CCNC1=O , what is its reported pIC50?
A: 6.72

Q: For CC(C)C[C@H](NC(=O)OCC(C)(O)c1cccc(Cl)c1)C(=O)N[C@@H](C[C@@H]1CCNC1=O)C(O)S(=O)(=O)O (mixture of isomers) , what is its reported pIC50?
A: 6.49

Q: For [2H]C([2H])(OC(=O)N[C@@H](CC(C)C)C(=O)N[C@H](C=O)C[C@@H]1CCNC1=O)C(C)(C)Sc1ccccc1 , what is its reported pIC50?
A: 6.70

Q: For CC(C)C[C@H](NC(=O)OCC(C)(C)Oc1ccccc1)C(=O)N[C@H](C=O)C[C@@H]1CCNC1=O , what is its reported pIC50?
A: 6.51

Q: For CC(C)C[C@H](NC(=O)OCC(C)(C)Sc1ccccc1)C(=O)N[C@@H](C[C@@H]1CCNC1=O)C(O)S(=O)(=O)O (some centres not stated) , what is its reported pIC50?
A: 7.05

Q: For CC(C)C[C@H](NC(=O)OCC(C)(C)Sc1cccc(Cl)c1)C(=O)N[C@H](C=O)C[C@@H]1CCNC1=O , what is its reported pIC50?
A: 6.82

Q: For CC(C)C[C@H](NC(=O)OCC(C)(C)Sc1ccc(F)cc1)C(=O)N[C@@H](C[C@@H]1CCNC1=O)C(O)S(=O)(=O)O (some centres not stated) , what is its reported pIC50?
A: 6.57

Q: For CC(C)C[C@H](NC(=O)OCC(C)(C)Oc1cccc(F)c1)C(=O)N[C@H](C=O)C[C@@H]1CCNC1=O , what is its reported pIC50?
A: 6.70

Q: For [2H]C([2H])(OC(=O)N[C@@H](CC(C)C)C(=O)N[C@@H](C[C@@H]1CCNC1=O)C(O)S(=O)(=O)[O-])C(C)(C)Oc1cccc(Cl)c1.[Na+] (some centres not stated) , what is its reported pIC50?
A: 6.55
